Test system: Escherichia coli
assayNotes: Antibacterial activity against Escherichia coli ATCC […] by Etest method in presence of NAB7061
Assay type: functional
assayMetric: fractional inhibitory concentration index (FICI)
Keep the answer to the number alone.

// below: answered compounds
C/C(=C\C(=O)OCCCCCCCCC(=O)O)C[C@@H]1OC[C@H](C[C@@H]2O[C@H]2[C@@H](C)[C@H](C)O)[C@@H](O)[C@H]1O [MUPIROCIN] :: 0.127
CC[C@H]1OC(=O)[C@H](C)[C@@H](O[C@H]2C[C@@](C)(OC)[C@@H](O)[C@H](C)O2)[C@H](C)[C@@H](O[C@@H]2O[C@H](C)C[C@H](N(C)C)[C@H]2O)[C@](C)(O)C[C@@H](C)CN(C)[C@H](C)[C@@H](O)[C@]1(C)O [AZITHROMYCIN] :: 0.157
CC[C@H]1OC(=O)[C@H](C)[C@@H](O[C@H]2C[C@@](C)(OC)[C@@H](O)[C@H](C)O2)[C@H](C)[C@@H](O[C@@H]2O[C@H](C)C[C@H](N(C)C)[C@H]2O)[C@](C)(O)C[C@@H](C)C(=O)[C@H](C)[C@@H](O)[C@]1(C)O [ERYTHROMYCIN] :: 0.188

Reported fractional inhibitory concentration index (FICI) for CO[C@H]1/C=C/O[C@@]2(C)Oc3c(C)c(O)c4c(O)c(c(/C=N/N5CCN(C)CC5)c(O)c4c3C2=O)NC(=O)/C(C)=C\C=C\[C@H](C)[C@H](O)[C@@H](C)[C@@H](O)[C@@H](C)[C@H](OC(C)=O)[C@@H]1C [RIFAMPIN] was 0.071

---

Entries and their measured inhibition zone (IZ) follow.
Tested on: Escherichia coli
assayNotes: Antibacterial activity against Escherichia coli IH3080 assessed as growth inhibition at 10 ug after 18 hrs by […]
Format: functional
Bridge positions count the residues as written; N and C are the ends. Square brackets hold non-standard residues; d marks the D form. Peptide text beside a SMILES is read from it. * marks the point of attachment. Octanoyl = CCCCCCCC(=O)*; Dab = NCC[C@H](N)C(=O)O; Abu = CC[C@H](N)C(=O)O
// units = mm2; emit number, no label

CCCCCCCC(=O)N[C@H](C(=O)N[C@H](C(=O)N[C@H](CO)C(=O)N[C@H]1CCNC(=O)[C@H]([C@@H](C)O)NC(=O)[C@H](CCN)NC(=O)[C@H](CCN)NC(=O)[C@H](CC(C)C)NC(=O)[C@H](Cc2ccccc2)NC(=O)[C@H](CCN)NC1=O)[C@@H](C)O)[C@@H](C)O :: 160

The recorded inhibition zone (IZ) for CCCCCCCC(=O)N[C@H](C(=O)N[C@@H](CC)C(=O)N[C@H]1CCNC(=O)[C@H](CC(C)C)NC(=O)[C@H](CCN)NC(=O)[C@H](CCN)NC(=O)[C@H](CC(C)C)NC(=O)[C@@H](Cc2ccccc2)NC(=O)[C@H](CCN)NC1=O)[C@@H](C)O (Octanoyl-T[Abu][Dab][Dab][dF]L[Dab][Dab]L; lactam 3-C) is 50

The recorded inhibition zone (IZ) for CCCCCCCC(=O)N[C@H](C)C(=O)N[C@H](C)C(=O)N[C@H]1CCNC(=O)[C@H]([C@@H](C)O)NC(=O)[C@H](CCN)NC(=O)[C@H](CCN)NC(=O)[C@H](CC(C)C)NC(=O)[C@H](Cc2ccccc2)NC(=O)[C@H](CCN)NC1=O is 0

---

Test system: Escherichia coli
assayNotes: Antibacterial activity against Escherichia coli ATCC 25992 by Etest method
Format: functional
Each record here notes measured MIC.
For clarity, give the value followed by its unit.

// below: answered compounds
C/C(=C\C(=O)OCCCCCCCCC(=O)O)C[C@@H]1OC[C@H](C[C@@H]2O[C@H]2[C@@H](C)[C@H](C)O)[C@@H](O)[C@H]1O [MUPIROCIN] :: 256 µg/mL
CC[C@H]1OC(=O)[C@H](C)[C@@H](O[C@H]2C[C@@](C)(OC)[C@@H](O)[C@H](C)O2)[C@H](C)[C@@H](O[C@@H]2O[C@H](C)C[C@H](N(C)C)[C@H]2O)[C@](C)(O)C[C@@H](C)C(=O)[C@H](C)[C@@H](O)[C@]1(C)O [ERYTHROMYCIN] :: 32 µg/mL
CC[C@H]1OC(=O)[C@H](C)[C@@H](O[C@H]2C[C@@](C)(OC)[C@@H](O)[C@H](C)O2)[C@H](C)[C@@H](O[C@@H]2O[C@H](C)C[C@H](N(C)C)[C@H]2O)[C@](C)(OC)C[C@@H](C)C(=O)[C@H](C)[C@@H](O)[C@]1(C)O [CLARITHROMYCIN] :: 16 µg/mL
CC[C@H]1OC(=O)[C@H](C)[C@@H](O[C@H]2C[C@@](C)(OC)[C@@H](O)[C@H](C)O2)[C@H](C)[C@@H](O[C@@H]2O[C@H](C)C[C@H](N(C)C)[C@H]2O)[C@](C)(O)C[C@@H](C)CN(C)[C@H](C)[C@@H](O)[C@]1(C)O [AZITHROMYCIN] :: 3 µg/mL

Now for another entry.
MIC in this record for CO[C@H]1/C=C/O[C@@]2(C)Oc3c(C)c(O)c4c(O)c(c(/C=N/N5CCN(C)CC5)c(O)c4c3C2=O)NC(=O)/C(C)=C\C=C\[C@H](C)[C@H](O)[C@@H](C)[C@@H](O)[C@@H](C)[C@H](OC(C)=O)[C@@H]1C [RIFAMPIN] : 8 µg/mL

---

System: Escherichia coli
assayNotes: Antibacterial activity against Escherichia coli IH3080 assessed as growth inhibition at 10 ug after 18 hrs by […]
Format: functional
Bridge positions count the residues as written; N and C are the ends. Square brackets hold non-standard residues; d marks the D form. Peptide text beside a SMILES is read from it. * marks the point of attachment. Octanoyl = CCCCCCCC(=O)*; Dab = NCC[C@H](N)C(=O)O; Abu = CC[C@H](N)C(=O)O
assayMetric: inhibition zone (IZ) (mm2)
Response body: numeric value in mm2, unit text excluded.

Consider the reported inhibition zone (IZ) for these compounds:
CCCCCCCC(=O)N[C@@H](C)C(=O)N[C@H](C(=O)N[C@H](CO)C(=O)N[C@H]1CCNC(=O)[C@H]([C@@H](C)O)NC(=O)[C@H](CCN)NC(=O)[C@H](CCN)NC(=O)[C@H](CC(C)C)NC(=O)[C@H](Cc2ccccc2)NC(=O)[C@H](CCN)NC1=O)[C@@H](C)O :: 160
CCCCCCCC(=O)N[C@@H](CCN)C(=O)N[C@H](C(=O)N[C@@H](CCN)C(=O)N[C@H]1CCNC(=O)[C@H]([C@@H](C)O)NC(=O)[C@H](CC)NC(=O)[C@H](CCN)NC(=O)[C@H](CC(C)C)NC(=O)[C@@H](Cc2ccccc2)NC(=O)[C@H](CC)NC1=O)[C@@H](C)O (Octanoyl-[Dab]T[Dab][Dab][Abu][dF]L[Dab][Abu]T; lactam 4-C) :: 0

The reported Escherichia coli inhibition zone (IZ) of CCCCCCCC(=O)N[C@H](C(=O)N[C@H](CO)C(=O)N[C@H]1CCNC(=O)[C@H]([C@@H](C)O)NC(=O)[C@H](CCN)NC(=O)[C@H](CCN)NC(=O)[C@H]([C@@H](C)O)NC(=O)[C@H](Cc2ccccc2)NC(=O)[C@H](CCN)NC1=O)[C@@H](C)O is 172
